- Target or system: HCV NS3 helicase NS3h_1b(con1) (Hepatitis C virus genotype 1b)
- Construct: truncated C-terminally His-tagged NS3 proteins lacking the N-terminal protease, called NS3h; His-tag (C); made in house
- Test name: MBHA screen of NCI mechanistic set library at 20 μM (percent inhibition, compound interference)
- Type: biochemical
- Cond: compounds at 20 μM, MBHA with DNA substrate; assay interference calculated with Equation 2
Recorded endpoint: Int.* (Ratio) (Interference)

Ask: Looking for the measured Int.* (Ratio) (Interference) of `Oc1ccc2ccccc2c1N=Nc1cccc2ccccc12` , can you help?
Reply: 0.97

Ask: // query: `Cn1c(=O)c2nc3sc4c(n3c2n(C)c1=O)C(=O)c1ccccc1C4=O`
Reply: 0.90

Ask: Another: COC(=O)C1=CC(=O)C(C(=O)Nc2ccc(OC)cc2)C(c2ccccc2)O1 (stereo not drawn)
Reply: 1.01

Ask: Queued: `CCOC(=O)c1ccc(-c2cc(C)no2)[nH]1`
Reply: 0.93

Ask: Proceed to CCOc1ccc(C(C)c2cc3c(cc2OC)OCO3)cc1 (stereo not drawn)
Reply: 0.94

Ask: Next entry: Cc1ccc2c(c1)C1(C)OC(C=CC1=O)O2 (stereo not drawn)
Reply: 0.98

a. Cc1ccccc1NC(=O)C(=O)C(C#N)c1ccccc1C (stereo not drawn)
b. COc1ccc2c(c1)-c1nn(CCCN(C)C)c3ccc([N+](=O)[O-])c(c13)N2
Ask: Would you kindly point out which of a and b has the smaller Int.* (Ratio) (Interference) figure? # reply format: chosen label
Reply: b

====

- Target or system: HCV NS3 helicase NS3h_1b(con1) (Hepatitis C virus genotype 1b, UniProt Q9WMX2)
- Construct: truncated C-terminally His-tagged NS3 proteins lacking the N-terminal protease, called NS3h; His-tag (C); made in house
- Sequence (Q9WMX2 1192-1657): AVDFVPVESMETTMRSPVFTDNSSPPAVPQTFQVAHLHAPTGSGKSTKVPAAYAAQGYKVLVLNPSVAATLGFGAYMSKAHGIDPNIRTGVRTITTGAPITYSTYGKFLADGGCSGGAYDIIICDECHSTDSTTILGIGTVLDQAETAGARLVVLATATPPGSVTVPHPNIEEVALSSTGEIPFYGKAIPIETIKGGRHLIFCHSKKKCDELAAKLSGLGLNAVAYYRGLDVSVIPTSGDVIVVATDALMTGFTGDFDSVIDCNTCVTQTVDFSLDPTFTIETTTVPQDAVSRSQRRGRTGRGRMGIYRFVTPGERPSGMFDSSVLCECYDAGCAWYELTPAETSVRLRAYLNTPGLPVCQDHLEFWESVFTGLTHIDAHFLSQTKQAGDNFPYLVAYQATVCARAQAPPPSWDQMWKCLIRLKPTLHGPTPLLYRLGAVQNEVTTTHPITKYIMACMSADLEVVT
- Test name: MBHA screen of NCI mechanistic set library at 20 μM (percent inhibition, compound interference)
- Type: biochemical
- Cond: compounds at 20 μM, MBHA with DNA substrate; assay interference calculated with Equation 2
- Method: All molecular beacon-based helicase assays (MBHAs) were performed according to known methods (Belon & Frick (2008) supra; Belon & Frick (2009) supra). […] Fluorescence was read before ATP (F0) addition and 30 minutes after ATP was added to 1 mM (F30) using a Tecan Infinite M200 fluorescence microplate reader with excitation and emission wavelengths set to 643 and 670 nm, respectively. […]
Recorded endpoint: Int.* (Ratio) (Interference)

Ask: Need Int.* (Ratio) (Interference) of Cl.Nc1nccc2c1ncn2C1C=C(CO)C(O)C1O (centres unmarked) [Compound 617989] , thanks.
Reply: 0.96

Ask: Another: O=c1[nH]c(=O)n(C2CCCO2)cc1F (centres unmarked) [Compound 148958]
Reply: 0.99

Ask: Another molecule to check: CC1(C)CCCC2(C)C3=C(CCC12)C(=O)OC3 (centres unmarked) [Compound 375294]
Reply: 0.87

Ask: Field entry: CC(=O)OC[C@H]1O[C@@H](NC(=O)N(CCCl)N=O)[C@H](OC(C)=O)[C@@H](OC(C)=O)[C@@H]1OC(C)=O [Compound 245432]
Reply: 1.06

Ask: Can you handle CCC(=O)OC1CCn2c1nc1c2C(=O)C(C)=C(N2CC2)C1=O (centres unmarked) [Compound 651079] next?
Reply: 1.05

Ask: How about this molecule: COc1cc(/C=C(\C)c2ccc3c(c2)OCO3)cc(OC)c1OC [Compound 648422]
Reply: 1.02

Ask: What would you report for CC(C)c1ccc2nc3ccc(C(=O)NCCN(C)C)cn3c(=O)c2c1 [Compound 600305] ?
Reply: 0.91

Ask: Entry to check: CC/C(=C(\c1ccccc1)c1ccc(OCCN(C)C)cc1)c1ccccc1.O=C(O)CC(O)(CC(=O)O)C(=O)O [Compound 180973]
Reply: 0.90

====

- Target or system: HCV NS3 helicase NS3h_1b(con1) (Hepatitis C virus genotype 1b, UniProt Q9WMX2)
- Construct: truncated C-terminally His-tagged NS3 proteins lacking the N-terminal protease, called NS3h; His-tag (C); made in house
- Test name: MBHA screen of NCI mechanistic set library at 20 μM (percent inhibition, compound interference)
- Type: biochemical
- Cond: compounds at 20 μM, MBHA with a DNA substrate; calculated from Equation 1
Recorded endpoint: Inh. (%) (Inhibition)

Consider the following illustrative entries.
Ask: For the compound shown here, `CC(C)=CCC1=C(O)c2ccccc2C(=O)C1=O` , give the reported Inh. (%) (Inhibition).
Reply: −4.3

Ask: Next entry: `CCP(CC)CC.[Au+].[Cl-]`
Reply: −3.8

Ask: And then `O=c1ccc2ccc(CBr)cc2o1` , what is it?
Reply: 10.1

I. NC1=NCN([C@@H]2O[C@H](CO)[C@@H](O)[C@H]2O)C(=O)N1
II. COc1ccc(N=C2C(=Nc3ccc(OC)cc3)N(c3ccc(N(C)C)cc3)C(=S)N2c2ccc(OC)cc2)cc1
Ask: Between the two listed entries I and II , which has its Inh. (%) (Inhibition) at the higher number? Indicate which entry you chose by stating its label.
Reply: II
(II: −5.4%, I: −43.3%)

====

- Target or system: HCV NS3 helicase NS3h_1b(con1) (Hepatitis C virus genotype 1b, UniProt Q9WMX2)
- Construct: truncated C-terminally His-tagged NS3 proteins lacking the N-terminal protease, called NS3h; His-tag (C); made in house
- Test name: MBHA screen of NCI mechanistic set library at 20 μM (percent inhibition, compound interference)
- Type: biochemical
- Cond: compounds at 20 μM, MBHA with a DNA substrate; calculated from Equation 1
Recorded endpoint: Inh. (%) (Inhibition)

Ask: // map `C[C@@H]1CC[C@H]2C(C)(C)[C@H]3C[C@@]12CC[C@@]3(C)O` to recorded Inh. (%) (Inhibition) (system: HCV NS3 helicase NS3h_1b(con1) (Hepatitis C virus genotype 1b, UniProt Q9WMX2))
Reply: −4.0

P. O=C(Nc1ccc(Sc2ccc(N=Nc3c(O)c(S(=O)(=O)O)cc4cc(S(=O)(=O)O)ccc34)cc2)cc1)c1ccc(N=Nc2c(O)ccc3c(S(=O)(=O)O)cc(S(=O)(=O)O)cc23)cc1
Q. O=C(NC(=O)c1c(Cl)nc2sccn12)Nc1ccc(Cl)cc1
R. COc1cc(C(C)c2cc3c(cc2OCCO)OCO3)cc(OC)c1OC (stereo not shown)
Ask: Rank items: key Inh. (%) (Inhibition), increasing. Order the labels as requested and list them.
Reply: R, P, Q

====

Reported Fluorescence RFU@ 10 μM values for a set of molecules
- Test name: Absorbance and fluorescence properties
- Type: physicochemical
- Cond: 10 μM
Value expressed in RFU; do not type the unit.

Ask: What measured Fluorescence RFU@ 10 μM goes with `Cc1ccc2nc(-c3ccc4nc(-c5ccc(NC(=O)c6cc(C(F)(F)F)ccc6F)cc5)sc4c3)sc2c1S(=O)(=O)O` ?
Reply: 159

Next:
Ask: I'd like to know its Fluorescence RFU@ 10 μM. The molecule in question is `Cc1ccc2nc(-c3ccc4nc(-c5ccc(NC(=O)c6ccc(F)cc6)cc5)sc4c3)sc2c1S(=O)(=O)O.N`
Reply: 111

Ask: Now the molecule `Cc1ccc2nc(-c3ccc4nc(-c5ccc6nc(-c7ccc8nc(-c9ccc(N)cc9)sc8c7)sc6c5)sc4c3)sc2c1S(=O)(=O)O`
Reply: 3

Ask: For `Cc1ccc2nc(-c3ccc4nc(-c5ccc(NC(=O)c6ccc7nc(-c8ccc(N)cc8)sc7c6)cc5)sc4c3)sc2c1S(=O)(=O)O` then?
Reply: 2

Ask: Same for `Cc1ccc2nc(-c3ccc4nc(-c5ccc(NC(=O)c6ccc(Br)cc6)cc5)sc4c3)sc2c1S(=O)(=O)O`
Reply: 209

Ask: Next molecule: `Cc1ccc2nc(-c3ccc4nc(-c5ccc(NC(=O)c6ccc(N)cc6)cc5)sc4c3)sc2c1S(=O)(=O)O`
Reply: 4

Ask: Also `Cc1ccc2nc(-c3ccc4nc(-c5ccc(NC(=O)c6ccc(Cl)c(Cl)c6)cc5)sc4c3)sc2c1S(=O)(=O)O` ?
Reply: 203

====

- Target or system: HCV NS3 helicase NS3h_1b(con1) (Hepatitis C virus genotype 1b, UniProt Q9WMX2)
- Construct: truncated C-terminally His-tagged NS3 proteins lacking the N-terminal protease, called NS3h; His-tag (C); made in house
- Test name: MBHA screen of NCI mechanistic set library at 20 μM (percent inhibition, compound interference)
- Format: biochemical
- Cond: compounds at 20 μM, MBHA with DNA substrate; assay interference calculated with Equation 2
Recorded endpoint: Int.* (Ratio) (Interference)

Ask: Could you share which Int.* (Ratio) (Interference) value was measured for `Cc1nc2c(nc1C)C(=O)c1ccccc1C2=O` ?
Reply: 0.97

Ask: Now give it for `COc1ccc2c(c1)CCc1c-2n[nH]c1-c1[nH]nc2c1CCc1cc(OC)ccc1-2` too.
Reply: 0.86

Ask: Would you mind doing `CO[C@@H]1[C@@H](OC(=O)c2ccc(C)[nH]2)[C@@H](O)[C@H](Oc2ccc3c(O)c(NC(=O)c4c[nH]c(C(=O)Nc5c(O)c6ccc(O[C@@H]7OC(C)(C)[C@H](OC)[C@@H](OC(=O)c8ccc(C)[nH]8)[C@H]7O)c(C)c6oc5=O)c4C)c(=O)oc3c2C)OC1(C)C` as well?
Reply: 0.83

Ask: For CSC1SC[C@H]2C(=O)N(C)[C@@H](C(C)C)C(=O)OC[C@@H](NC(=O)c3cnc4ccccc4n3)C(=O)N[C@@H](C)C(=O)N(C)[C@@H]1C(=O)N(C)[C@@H](C(C)C)C(=O)OC[C@@H](NC(=O)c1cnc3ccccc3n1)C(=O)N[C@@H](C)C(=O)N2C (some centres unmarked) then?
Reply: 0.86

Ask: Next record, please: `O=C1c2ccccc2C(=O)c2c(O)c(NCCNCCO)cc(O)c21`
Reply: 0.70
